Measured CC50 values are reported for all entries that follow.
Assay info: Functional assay to measure dose dependent changes in cell viability from drug treatment in Vero E6 miRFP670 cells (cotreated with P-gp inhibitor, CP100356) that are infected with Dengue virus type 2 New Guinea C. […] Cytotoxicity is reported via via analysis of DAPI count using high-content imager. The assay has been performed by KU Leuven.
Format: toxicity, cell-based, Vero C1008
Measurement parameters: chlorocebus sabaeus, with CP100356 (P-gp inhibitor, concentration not stated); p-gp concentration 500 nM
Please reply with the bare figure in µM and do not write the unit itself.

Worked cases, CC50 given:
Smiles record: FC(F)(F)Oc1cc(Cl)cc2c(Cc3ccc(-c4nnn[nH]4)cc3)c[nH]c12
Property label: CC50
Result number: 11.1
--
Smiles record: NCCc1ccc([C@H]2C[C@@H]2c2cc(Cl)cc(NC(=O)OCc3ccccc3)c2)cc1
Property label: CC50
Result number: 5.29
--
Smiles record: Cc1ccc(-c2nc3c(C(=O)Nc4ccc5c(c4)CNC5)cc(F)cc3[nH]2)cc1
Property label: CC50
Result number: 3
--
Smiles record: CNC(=O)[C@H](Nc1ccc2c(c1)CNC2)c1cc(Cl)cc2[nH]ncc12
Property label: CC50
Result number: 5.53
--
Smiles record: COC(=O)c1cc(Br)cc2c(Cc3ccc(-c4nnn[nH]4)cc3)c[nH]c12
Property label: CC50
Result number: 9.83

Task: Sample "CCCNC(=O)[C@H](Nc1ccc2c(c1)CNC2)c1cc(Cl)cc2[nH]ncc12" — what was its CC50?
Output: 12.9

Task: Entry "O=C(Nc1ccc2c(c1)CNC2)c1cc(Cl)cc2c1cnn2C[C@H]1CCCO1" please
Output: 37.1

Origin of measurements: ChEMBL document CHEMBL5661955
